Biological target: T1, syntenin PDZ1–PDZ2 tandem (amino acids 107–275), wild type (human, UniProt O00560 107-275)
T1 construct: syntenin, PDZ1–PDZ2 tandem, amino acids 107–275; also called PDZ tandem of syntenin; PDZ1–PDZ2 tandem wild-type; source: ER2566 cells (pETM-11 vector), purified; not shown: His6, N-terminal, kept
T1 sequence (looked up): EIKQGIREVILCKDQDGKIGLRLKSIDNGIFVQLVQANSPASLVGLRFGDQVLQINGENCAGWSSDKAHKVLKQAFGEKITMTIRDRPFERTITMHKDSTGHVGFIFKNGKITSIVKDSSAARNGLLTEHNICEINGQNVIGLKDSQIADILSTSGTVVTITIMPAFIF
Assay: SPR; as a3, but the syntenin protein pre-incubated with 0.5 mM Ins(1,4,5)P3 (IP3, PIP2 head group) before perfusion; apparent KD
Details: both partners purified
Ends that are not written are not given here.
readout.type: pKd
The value called pKd is obtained by taking minus log10 of the concentration in mol/L.

Lab book: pKd of SWRRFYHRLSHSSKGETAV (also: biotinylated, position not given here, Frizzled 7, last 19 residues, part of the cytoplasmic domain; K-5 is lysine 569; Immobilised on a streptavidin sensor chip; also called 19 amino acids C-terminal peptide from Frizzled 7; Frizzled 7 19mer; source: synthetic peptide, GenScript) [Frizzled 7 wild-type 19mer, biotinylated C-terminal peptide (SWRRFYHRLSHSSKGETAV)] noted as 5.70
